// data source = patent US10081634B2

# Assay system: PRS (prolyl-tRNA synthetase) (Homo sapiens, UniProt P07814)
# Construct: the portion corresponding to PRS in cDNA of EPRS was subcloned; made in house
# Sequence (P07814 1007-1512 limits assumed): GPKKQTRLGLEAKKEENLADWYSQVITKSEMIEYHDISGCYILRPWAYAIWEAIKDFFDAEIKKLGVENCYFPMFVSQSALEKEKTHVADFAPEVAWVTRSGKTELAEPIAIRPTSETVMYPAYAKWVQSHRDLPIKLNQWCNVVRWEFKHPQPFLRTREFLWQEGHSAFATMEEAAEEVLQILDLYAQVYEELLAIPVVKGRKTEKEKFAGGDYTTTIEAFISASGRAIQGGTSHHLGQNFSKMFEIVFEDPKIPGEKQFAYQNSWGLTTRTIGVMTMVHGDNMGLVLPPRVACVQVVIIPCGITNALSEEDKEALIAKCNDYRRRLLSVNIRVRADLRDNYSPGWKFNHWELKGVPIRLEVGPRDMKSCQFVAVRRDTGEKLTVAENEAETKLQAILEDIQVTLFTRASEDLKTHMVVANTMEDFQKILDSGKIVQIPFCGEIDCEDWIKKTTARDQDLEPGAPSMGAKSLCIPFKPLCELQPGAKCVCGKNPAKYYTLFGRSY
# Procedure text: In vitro PRS enzyme activity inhibition experiment ([3H]proline, liquid scintillation)
# Assay type: biochemical
pIC50: −log10 of the molar value.
Below is a list of entries, each paired with its recorded pIC50 value.

Measured pIC50 of Cc1c(C#N)cnc2c1ccn2CC(=O)C[C@H]1NCCC[C@@H]1O [Example 95] : < 6.30

The molecule listed as O=C(C[C@H]1NCCC[C@@H]1O)Cn1cnc2c(Cl)c(Br)cnc21 [Example 42] has a reported pIC50 of > 7.00
